- EXPERIMENT: lysozyme-GFP induction in HOXA9-ER cells – HOXA9-ER marrow cells, GFP flow, set 1, SAR follow-up (AID 743181)
- SETUP CONDITIONS: HOXA9-ER marrow cells, lysozyme-GFP differentiation, flow; at 10 µM (top of the series)
ENDPOINT: GFP+ cells, differentiation (%)
Record the value in %, omitting the unit from your answer.

Observe how each entry below is paired with its result.
COMPOUND: NCCC(=O)N[C@@H]1CCCc2ccccc21
MEAS VALUE: 1

COMPOUND: O=C(CNC(=O)c1ccc(Cl)c(Cl)c1)N[C@@H]1CCCc2ccccc21
MEAS VALUE: 2

COMPOUND: O=C(CCNC(=O)c1ccc(Cl)cc1)NC1CCCCC1
MEAS VALUE: 1

COMPOUND: O=C(CNC(=O)c1ccc(Cl)cc1)N[C@@H]1CCCc2ccccc21
MEAS VALUE: 4

COMPOUND: CC(NC(=O)C1CCCN(C(=O)c2ccc(Cl)cc2)C1)c1ccccc1 (configuration not stated)
MEAS VALUE: 0

COMPOUND: O=C(CCNC(=O)c1ccc(Cl)cc1)N[C@H]1CCCc2ccccc21
MEAS VALUE: 1

COMPOUND: O=C(CCCNC(=O)c1ccc(Cl)c(Cl)c1)N[C@@H]1CCCc2ccccc21
MEAS VALUE: 1

COMPOUND: O=C(Cc1ccc(Cl)cc1)NCCC(=O)N[C@@H]1CCCc2ccccc21
MEAS VALUE: 16

Turning now to a further record.
IN: Which GFP+ cells, differentiation value is on record for O=C(CNC(=O)c1ccc(OC(F)(F)F)cc1)N[C@@H]1CCCc2ccccc21 ?
OUT: 1
